- System: PPARg DBDmut:RXRa IVT, anti-PPARg (DBD mutation: PPARg1 K132A/R137A, NR concentration 270 nM, RXRa partner concentration 90 nM)
- test-protocol: PBM binding z-score (relative to random genomic background probes); higher = stronger binding; sequences stand for … in GC…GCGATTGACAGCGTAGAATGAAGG
Please use yes (1) whenever PBM binding z-score is not below 0.3, and no (0) whenever it is.

CCGACTGGGGCATGAGGTTACCATAAGCCAGCCC: no (0)
AGAATGAGGTTATGCGTAGATCAGGGAAGAAAGT: yes (1)
CCTAACAGGCCAATCTGGGTCACTCAAGGCTTGA: yes (1)
CCGACTGCGGCAAAGGTTACCATACTCAGTACGA: no (0)
TCTAGTTGGACAAAGGTCACACACTCGAAATGCG: yes (1)
TCTTGTAGATCAAGAGAGGTTAAGAAAGTGCGCT: no (0)

Could you tell me if the measured PBM binding z-score of GATACAGGGTCAGCTAGAGGCCAGAGTTTGGAAA reaches 0.3 or more?
no (0)

Do the same for TCATATAGGTAAAAAGGTGAAAGTCCGTAAGTTA please
yes (1)

Do the same for TATACAGGGTCAAACGCCAGAGTACGAATGTCGA please
yes (1)

Do the same for GCTTGTAGATCAAGGTTACGAAAGACTAAGCTAA please
no (0)

Do the same for ATCGAAATGTCGAGGTGAGTATAGAGAAAGGGAA please
yes (1)

Do the same for CCTTCCGGGTCACTGACAGGTTATAGCATTTGGA please
yes (1)

---

- System: LXRb homodimer (NR concentration 270 nM)
- test-protocol: PBM binding z-score (relative to random genomic background probes); higher = stronger binding; sequences stand for … in GC…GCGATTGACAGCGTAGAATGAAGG
Please use 1 whenever PBM binding z-score is not below 0.2, and 0 whenever it is.

Example entries begin here.
CTACCAAGCTGAACAAGGTCGTTGATTACTATTC: 0
ATCTCTAGGTAAAGATAGTTAAGTGAATGCAAAT: 1
GCTAGTTGGTCAGTAAAAGGTCACACATCGGTCG: 1

Could you tell me if the measured PBM binding z-score of CGACCAAGGTGAACAAGGTCGTTGATTACTATTC reaches 0.2 or more?
0

Do the same for GCTAGTTGGTCAGTAAAAGGTCACGCACCGGTCG please
1

---

- System: PPARg:RXRa (NR concentration 180 nM, RXRa partner concentration 90 nM)
- test-protocol: PBM binding z-score (relative to random genomic background probes); higher = stronger binding; sequences stand for … in GC…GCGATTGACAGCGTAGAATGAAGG
Using PBM binding z-score as the sorting value, the categories are low = under 0.8, medium = from 0.8 up to 2, high = 2 and over

TCGGCTAGGTCAACGATGGTCAGCTAATCTGCTA: medium
GCTTATGGGTCAAAGGTTATAGCATGAATAGAAT: high
CAAACTAGGTCAAGGACAAAGTCGGTTTGTGCCA: high
GCTAGCAGGCCATTTGAGTCACTCAATGACGGGC: low
CGTCCAAGGCCAGAGAGGTCAGTGAATGCCGAGT: low
TAGCCTAGGTCAGTTCGGGCCAGTATACGCTATA: low
AGAATGAGGTTACGATCAGGGAAACAGAATACAT: high
CCTAGTTGGTCGGGAGGTCACACACCGGATATGA: high

Which band does ATCTCTAGGTGACAAGTTCAGTGAAAGAGAGGAC fall in?
high

Do the same for TCTATTAGTTGATTAGGGGAACCGAAACAGCGGA please
low

Do the same for TAGCCTAGGTCATGGTCCAGTATACCACGCGAAC please
high

Do the same for TAACCTAGGTCATGCGGGCCAGTATAGTGTCGGC please
high

Do the same for ATCTCTAGGTAACAAGTTCAGGGAAAGAGAGGAC please
medium

Do the same for GCTAGCCGGCCATTTGGGTCACTCAATGACGGGC please
low
